Quick record: Ki, hCA II (Homo sapiens, UniProt P00918).
Numbers only, in nM.

Sample answers from the record:
[[record]]
query_smiles = "NS(=O)(=O)c1ccc(NC(=O)CNC(=O)c2ccc(Cl)cc2)cc1"
readout_label = "Ki"
units_of_measure = "nM"
assay_value = 3.3

[[record]]
query_smiles = "NS(=O)(=O)c1ccc(NC(=O)CNC(=O)c2cccs2)cc1"
readout_label = "Ki"
units_of_measure = "nM"
assay_value = 38.5

[[record]]
query_smiles = "C[C@H](NC(=O)c1ccccc1)C(=O)NCc1ccc(S(N)(=O)=O)cc1"
readout_label = "Ki"
units_of_measure = "nM"
assay_value = 302

[[record]]
query_smiles = "NS(=O)(=O)c1ccc(CNC(=O)CNC(=O)c2ccccc2)cc1"
readout_label = "Ki"
units_of_measure = "nM"
assay_value = 368


Now for a further compound.
For the compound NS(=O)(=O)c1ccc(NC(=O)CNC(=O)c2ccccc2)cc1 , what Ki is on record?
19.9

###

biological target: UniProtKB Q9KVT1; assay: stopped-flow CO2 hydrase assay, VchCAγ; format: biochemical
Sequence (Q9KVT1 1-184): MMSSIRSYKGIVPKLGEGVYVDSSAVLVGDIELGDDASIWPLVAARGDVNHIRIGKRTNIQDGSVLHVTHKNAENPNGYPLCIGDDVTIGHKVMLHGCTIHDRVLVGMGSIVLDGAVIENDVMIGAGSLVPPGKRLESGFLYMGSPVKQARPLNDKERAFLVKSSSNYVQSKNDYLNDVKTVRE
READOUT LABEL: Ki (nM)
Give bare numbers, in nM.

[[record]]
query_smiles = "NS(=O)(=O)c1ccc(NC(=O)CNC(=O)c2ccccc2Cl)cc1"
readout_label = "Ki"
assay_value = 8930


Batch lookup, Ki per entry.
1. C[C@H](N)C(=O)Nc1ccc(S(N)(=O)=O)cc1
2. C[C@H](NC(=O)c1ccccc1)C(=O)Nc1ccc(S(N)(=O)=O)cc1
3. NS(=O)(=O)c1ccc(NC(=O)CNC(=O)c2ccc(Cl)cc2)cc1
4. NS(=O)(=O)c1ccc(CNC(=O)CNC(=O)c2cccs2)cc1

23.7
80.5
282
244

###

Kindly supply the reported melting point values for the records listed here.

[[record]]
compound = "NS(=O)(=O)c1ccc(NC(=O)CNC(=O)c2ccc(Cl)cc2)cc1 [compound 22]"
assay_value = "226 to 228 °C"

[[record]]
compound = "CC(C)[C@H](NC(=O)c1ccccc1)C(=O)NCc1ccc(S(N)(=O)=O)cc1 [compound 38]"
assay_value = "213 to 215 °C"

[[record]]
compound = "CC(C)[C@H](NC(=O)c1cccs1)C(=O)NCc1ccc(S(N)(=O)=O)cc1 [compound 44]"
assay_value = "144 to 146 °C"

[[record]]
compound = "CC(C)[C@H](NC(=O)c1ccccc1)C(=O)Nc1ccc(S(N)(=O)=O)cc1 [compound 15]"
assay_value = "279 to 280 °C"

[[record]]
compound = "NS(=O)(=O)c1ccc(CNC(=O)CNC(=O)c2cccs2)cc1 [compound 42]"
assay_value = "220 to 222 °C"

[[record]]
compound = "NS(=O)(=O)c1ccc(NC(=O)CNC(=O)c2ccccc2)cc1 [compound 13]"
assay_value = "214 to 216 °C"


For the compound CC(C)[C@H](NC(=O)c1ccco1)C(=O)NCc1ccc(S(N)(=O)=O)cc1 [compound 41] , what melting point is on record?
226 to 228 °C

###

molecular target: VchCAα (Vibrio cholerae)
Sequence (Q9KMP6 entry or part of it): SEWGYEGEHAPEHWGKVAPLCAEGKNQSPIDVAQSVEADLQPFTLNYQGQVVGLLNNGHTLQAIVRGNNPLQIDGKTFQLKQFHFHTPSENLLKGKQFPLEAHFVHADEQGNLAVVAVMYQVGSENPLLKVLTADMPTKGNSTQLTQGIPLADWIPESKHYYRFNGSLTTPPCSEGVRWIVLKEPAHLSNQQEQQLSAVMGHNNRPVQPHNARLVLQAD
Label key: 1 (yes) means Ki under 9 nM; 0 (no) means Ki of 9 nM or more.

Sample answers from the record:
[[record]]
compound = "CC(C)[C@H](N)C(=O)Nc1ccc(S(N)(=O)=O)cc1 [compound 12]"
measurement_target = "VchCAα (Vibrio cholerae)"
assigned_class = "0 (no)"

[[record]]
compound = "C[C@H](NC(=O)c1ccccc1)C(=O)NCc1ccc(S(N)(=O)=O)cc1 [compound 37]"
measurement_target = "VchCAα (Vibrio cholerae)"
assigned_class = "0 (no)"

[[record]]
compound = "NS(=O)(=O)c1ccc(NC(=O)CNC(=O)c2ccccc2)cc1 [compound 13]"
measurement_target = "VchCAα (Vibrio cholerae)"
assigned_class = "1 (yes)"


For this compound, is Ki lower than 9 nM? NS(=O)(=O)c1ccc(NC(=O)CNC(=O)c2cccs2)cc1 [compound 32]
1 (yes)

For this compound, is Ki lower than 9 nM? NS(=O)(=O)c1ccc(CNC(=O)CNC(=O)c2ccccc2)cc1 [compound 36]
1 (yes)

For this compound, is Ki lower than 9 nM? CC(C)[C@H](NC(=O)c1ccco1)C(=O)NCc1ccc(S(N)(=O)=O)cc1 [compound 41]
0 (no)

For this compound, is Ki lower than 9 nM? NS(=O)(=O)c1ccc(NC(=O)CNC(=O)c2ccc(Cl)cc2)cc1 [compound 22]
0 (no)

For this compound, is Ki lower than 9 nM? C[C@H](NC(=O)c1ccccc1)C(=O)Nc1ccc(S(N)(=O)=O)cc1 [compound 14]
0 (no)

###

Quick record: pKi, hCA II (Homo sapiens).
One number for each entry, as −log10 of the molar value.

Sample answers from the record:
[[record]]
query_smiles = "C[C@H](N)C(=O)Nc1ccc(S(N)(=O)=O)cc1"
assay_value = 6.42

[[record]]
query_smiles = "CC(C)[C@H](NC(=O)c1ccccc1)C(=O)Nc1ccc(S(N)(=O)=O)cc1"
assay_value = 8.43

[[record]]
query_smiles = "NS(=O)(=O)c1ccc(NC(=O)CNC(=O)c2cccc(Cl)c2)cc1"
assay_value = 7.83

[[record]]
query_smiles = "CC(C)[C@H](NC(=O)c1ccccc1)C(=O)NCc1ccc(S(N)(=O)=O)cc1"
assay_value = 6.77


Batch lookup, pKi per entry.
1. CC(C)[C@H](N)C(=O)Nc1ccc(S(N)(=O)=O)cc1
2. NS(=O)(=O)c1ccc(NC(=O)CNC(=O)c2ccco2)cc1

6.74
7.65

Batch lookup, pKi per entry.
1. CC(C)[C@H](NC(=O)c1ccco1)C(=O)NCc1ccc(S(N)(=O)=O)cc1
2. C[C@H](NC(=O)c1ccccc1)C(=O)Nc1ccc(S(N)(=O)=O)cc1

[7.71, 8.36]

###

Quick record: Ki, hCA I (Homo sapiens).

[[record]]
compound = "NS(=O)(=O)c1ccc(NC(=O)CNC(=O)c2ccco2)cc1 [compound 31]"
assay_value = "621 nM"

[[record]]
compound = "NS(=O)(=O)c1ccc(CNC(=O)CNC(=O)c2ccccc2)cc1 [compound 36]"
assay_value = "754 nM"

[[record]]
compound = "NS(=O)(=O)c1ccc(CNC(=O)CNC(=O)c2cccs2)cc1 [compound 42]"
assay_value = "828 nM"


Batch lookup, Ki per entry.
1. NS(=O)(=O)c1ccc(CNC(=O)CNC(=O)c2ccco2)cc1 [compound 39]
2. CC(C)[C@H](NC(=O)c1cccs1)C(=O)NCc1ccc(S(N)(=O)=O)cc1 [compound 44]
3. CC(C)[C@H](NC(=O)c1ccco1)C(=O)NCc1ccc(S(N)(=O)=O)cc1 [compound 41]
4. C[C@H](NC(=O)c1ccccc1)C(=O)NCc1ccc(S(N)(=O)=O)cc1 [compound 37]

1. 1440 nM
2. 94.9 nM
3. 215 nM
4. 722 nM

###

biological target: VchCAβ (Vibrio cholerae)
Sequence (A0A086SLX8 entry or part of it): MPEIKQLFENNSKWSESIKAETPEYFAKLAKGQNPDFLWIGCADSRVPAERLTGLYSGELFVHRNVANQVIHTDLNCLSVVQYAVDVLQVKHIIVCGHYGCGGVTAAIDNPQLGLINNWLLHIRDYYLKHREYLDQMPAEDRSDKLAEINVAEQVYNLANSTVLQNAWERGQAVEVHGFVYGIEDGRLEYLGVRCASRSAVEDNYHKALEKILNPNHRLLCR
READOUT LABEL: log10(Ki) (log10 of the value in nM)
Recorded Ki (log10, nM)

Sample answers from the record:
[[record]]
compound = "NS(=O)(=O)c1ccc(NC(=O)CNC(=O)c2ccc(Cl)cc2)cc1 [compound 22]"
measurement_target = "VchCAβ (Vibrio cholerae)"
readout_label = "log10(Ki)"
assay_value = 1.78

[[record]]
compound = "C[C@H](N)C(=O)Nc1ccc(S(N)(=O)=O)cc1 [compound 11]"
measurement_target = "VchCAβ (Vibrio cholerae)"
readout_label = "log10(Ki)"
assay_value = 2.58

[[record]]
compound = "CC(C)[C@H](NC(=O)c1ccccc1)C(=O)NCc1ccc(S(N)(=O)=O)cc1 [compound 38]"
measurement_target = "VchCAβ (Vibrio cholerae)"
readout_label = "log10(Ki)"
assay_value = 1.98


Batch lookup, log10(Ki) per entry.
1. NS(=O)(=O)c1ccc(CNC(=O)CNC(=O)c2ccccc2)cc1 [compound 36]
2. C[C@H](NC(=O)c1cccs1)C(=O)NCc1ccc(S(N)(=O)=O)cc1 [compound 43]
3. CC(C)[C@H](NC(=O)c1ccccc1)C(=O)Nc1ccc(S(N)(=O)=O)cc1 [compound 15]
4. C[C@H](NC(=O)c1ccccc1)C(=O)NCc1ccc(S(N)(=O)=O)cc1 [compound 37]
5. NS(=O)(=O)c1ccc(NC(=O)CNC(=O)c2ccco2)cc1 [compound 31]
6. NS(=O)(=O)c1ccc(CNC(=O)CNC(=O)c2ccco2)cc1 [compound 39]
7. NS(=O)(=O)c1ccc(NC(=O)CNC(=O)c2cccc(Cl)c2)cc1 [compound 21]
8. NS(=O)(=O)c1ccc(NC(=O)CNC(=O)c2cccs2)cc1 [compound 32]

[1.92, 2.84, 2.59, 1.97, 2.66, 2.60, 1.92, 2.80]

Batch lookup, log10(Ki) per entry.
1. NS(=O)(=O)c1ccc(NC(=O)CNC(=O)c2ccccc2)cc1 [compound 13]
2. NCC(=O)Nc1ccc(S(N)(=O)=O)cc1 [compound 10, 2‐amino‐N‐(4‐sulfamoylphenyl)acetamide]
3. CC(C)[C@H](NC(=O)c1cccs1)C(=O)NCc1ccc(S(N)(=O)=O)cc1 [compound 44]
4. NS(=O)(=O)c1ccc(NC(=O)CNC(=O)c2ccccc2Cl)cc1 [compound 20]
5. CC(C)[C@H](NC(=O)c1ccco1)C(=O)NCc1ccc(S(N)(=O)=O)cc1 [compound 41]

1. 2.95
2. 3.50
3. 1.97
4. 2.90
5. 2.85

Batch lookup, log10(Ki) per entry.
1. C[C@H](NC(=O)c1ccccc1)C(=O)Nc1ccc(S(N)(=O)=O)cc1 [compound 14]
2. CC(C)[C@H](N)C(=O)Nc1ccc(S(N)(=O)=O)cc1 [compound 12]
3. NS(=O)(=O)c1ccc(CNC(=O)CNC(=O)c2cccs2)cc1 [compound 42]
4. C[C@H](NC(=O)c1ccco1)C(=O)NCc1ccc(S(N)(=O)=O)cc1 [compound 40]

1: 3.48; 2: 2.56; 3: 2.80; 4: 2.79

src = paper PMC9298201
